# measurement.parameters: in methanol, 318.15 K
measured.attribute: solubility (mole fraction)
I only need the number, thanks.

Fill in reported solubility (mole fraction) for this entry: `O=c1c2ccccc2nc2n1CCc1c-2[nH]c2ccccc12`
0.000201

* * *

# measurement.parameters: in isopropanol, 308.15 K
measured.attribute: solubility (mole fraction)
Enter the number alone.

Quickly give me recorded solubility (mole fraction) for `O=c1c2ccccc2nc2n1CCc1c-2[nH]c2ccccc12`
0.000257

* * *

# measurement.parameters: in water, 293.15 K
measured.attribute: solubility (mole fraction)
Form: value (number only, do not type unit).

Look up and report measured solubility (mole fraction) for this entry: `O=c1c2ccccc2nc2n1CCc1c-2[nH]c2ccccc12`
2.84e-09

* * *

# measurement.parameters: in isopropanol, 288.15 K
measured.attribute: solubility (mole fraction)
Just the number, please.

Fill in reported solubility (mole fraction) for this entry: `O=c1c2ccccc2nc2n1CCc1c-2[nH]c2ccccc12`
9.8e-05

* * *

# measurement.parameters: in ethanol, 308.15 K
measured.attribute: solubility (mole fraction)

Using known records, supply solubility (mole fraction) for `O=c1c2ccccc2nc2n1CCc1c-2[nH]c2ccccc12`
0.00032

* * *

# measurement.parameters: in ethanol, 313.15 K
measured.attribute: solubility (mole fraction)
Field format: numeric only.

Give the reported solubility (mole fraction) for this compound. `O=c1c2ccccc2nc2n1CCc1c-2[nH]c2ccccc12`
0.000375

* * *

# measurement.parameters: in ethanol, 293.15 K
measured.attribute: solubility (mole fraction)
Just the number.

Report solubility (mole fraction) for `O=c1c2ccccc2nc2n1CCc1c-2[nH]c2ccccc12`
0.000191

* * *

# measurement.parameters: in isopropanol, 323.15 K
measured.attribute: solubility (mole fraction)

Assign solubility (mole fraction) to the following record: `O=c1c2ccccc2nc2n1CCc1c-2[nH]c2ccccc12`
0.000488

* * *

# measurement.parameters: in acetone, 293.15 K
measured.attribute: solubility (mole fraction)
Response field accepts a number only; no unit should be typed.

Retrieve solubility (mole fraction) measured for `O=c1c2ccccc2nc2n1CCc1c-2[nH]c2ccccc12` and print it.
0.000929

* * *

# measurement.parameters: in acetone, 323.15 K
measured.attribute: solubility (mole fraction)
Lab note: write the figure by itself, no unit.

State its solubility (mole fraction): `O=c1c2ccccc2nc2n1CCc1c-2[nH]c2ccccc12`
0.00205

* * *

# measurement.parameters: in acetone, 313.15 K
measured.attribute: solubility (mole fraction)

Please look at this compound and report its solubility (mole fraction): `O=c1c2ccccc2nc2n1CCc1c-2[nH]c2ccccc12`
0.00158

* * *

# measurement.parameters: in ethanol, 283.15 K
measured.attribute: solubility (mole fraction)
Keep the answer to the number alone.

Identify solubility (mole fraction) associated with the compound `O=c1c2ccccc2nc2n1CCc1c-2[nH]c2ccccc12`
0.000132

* * *

# measurement.parameters: in acetone, 283.15 K
measured.attribute: solubility (mole fraction)
Answer using only a numeral; do not append any unit.

Entry `O=c1c2ccccc2nc2n1CCc1c-2[nH]c2ccccc12` needs its solubility (mole fraction) filled in; supply it.
0.00069

* * *

# measurement.parameters: in acetone, 303.15 K
measured.attribute: solubility (mole fraction)
Answer with a bare number; do not write a unit.

Dear colleague, please send me the reported solubility (mole fraction) for `O=c1c2ccccc2nc2n1CCc1c-2[nH]c2ccccc12` when you can.
0.00122
